Target: human PD-L1 (human) (UniProt Q9NZQ7)
Sequence (Q9NZQ7 19-290): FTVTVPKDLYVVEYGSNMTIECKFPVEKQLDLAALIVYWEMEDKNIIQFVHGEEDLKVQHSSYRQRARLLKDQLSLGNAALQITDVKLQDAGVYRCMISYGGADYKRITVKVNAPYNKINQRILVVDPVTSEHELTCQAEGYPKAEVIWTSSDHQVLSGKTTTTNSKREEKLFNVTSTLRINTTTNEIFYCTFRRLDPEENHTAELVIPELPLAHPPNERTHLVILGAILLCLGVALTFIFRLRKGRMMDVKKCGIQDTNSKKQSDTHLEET
Experiment: flow cytometry, CHO cells expressing huPD-L1; MFI ratio to WT CD80 ECD-Fc (R&D)
Field: Fold change to WT. Provide a value for each of the binders that follow.
Use fold as the unit, but write only the number.

// query Quote Fold change to WT reported for variant CD80 IgV-Fc H18Y/Q33L/E35D/M47I (Fc fusion) VIHVTKEVKEVATLSCGYNVSVEELAQTRIYWLKDKKMVLTMMSGDINIWPEYKNRTIFDITNNLSIVILALRPSDEGTYECVVLKYEKDAFKREHLAEVTLSVKAD please.
// result 6.02

// query Quote Fold change to WT reported for variant CD80 IgV-Fc H18Y/V20A/Q33L/E35D/M47V/Y53F (Fc fusion) VIHVTKEVKEVATLSCGYNASVEELAQTRIYWLKDKKMVLTMMSGDVNIWPEFKNRTIFDITNNLSIVILALRPSDEGTYECVVLKYEKDAFKREHLAEVTLSVKAD please.
// result 15.2

// query Supply measured Fold change to WT of variant CD80 IgV-Fc Q33L/E35D/M43I/L85Q/R94W (Fc fusion) VIHVTKEVKEVATLSCGHNVSVEELAQTRIYWLKDKKMVLTMISGDMNIWPEYKNRTIFDITNNLSIVILALRPSDEGTYECVVQKYEKDAFKWEHLAEVTLSVKAD in your reply.
// result 3.65

// query Give reported Fold change to WT value for variant CD80 IgV-Fc A26E/Q33L/E35D/M47L (Fc fusion) VIHVTKEVKEVATLSCGHNVSVEELEQTRIYWLKDKKMVLTMMSGDLNIWPEYKNRTIFDITNNLSIVILALRPSDEGTYECVVLKYEKDAFKREHLAEVTLSVKAD
// result 7.67
